Biological target: HYOU1 (Homo sapiens)
Construct: endogenous in cells
Sequence (Q9Y4L1 33-999): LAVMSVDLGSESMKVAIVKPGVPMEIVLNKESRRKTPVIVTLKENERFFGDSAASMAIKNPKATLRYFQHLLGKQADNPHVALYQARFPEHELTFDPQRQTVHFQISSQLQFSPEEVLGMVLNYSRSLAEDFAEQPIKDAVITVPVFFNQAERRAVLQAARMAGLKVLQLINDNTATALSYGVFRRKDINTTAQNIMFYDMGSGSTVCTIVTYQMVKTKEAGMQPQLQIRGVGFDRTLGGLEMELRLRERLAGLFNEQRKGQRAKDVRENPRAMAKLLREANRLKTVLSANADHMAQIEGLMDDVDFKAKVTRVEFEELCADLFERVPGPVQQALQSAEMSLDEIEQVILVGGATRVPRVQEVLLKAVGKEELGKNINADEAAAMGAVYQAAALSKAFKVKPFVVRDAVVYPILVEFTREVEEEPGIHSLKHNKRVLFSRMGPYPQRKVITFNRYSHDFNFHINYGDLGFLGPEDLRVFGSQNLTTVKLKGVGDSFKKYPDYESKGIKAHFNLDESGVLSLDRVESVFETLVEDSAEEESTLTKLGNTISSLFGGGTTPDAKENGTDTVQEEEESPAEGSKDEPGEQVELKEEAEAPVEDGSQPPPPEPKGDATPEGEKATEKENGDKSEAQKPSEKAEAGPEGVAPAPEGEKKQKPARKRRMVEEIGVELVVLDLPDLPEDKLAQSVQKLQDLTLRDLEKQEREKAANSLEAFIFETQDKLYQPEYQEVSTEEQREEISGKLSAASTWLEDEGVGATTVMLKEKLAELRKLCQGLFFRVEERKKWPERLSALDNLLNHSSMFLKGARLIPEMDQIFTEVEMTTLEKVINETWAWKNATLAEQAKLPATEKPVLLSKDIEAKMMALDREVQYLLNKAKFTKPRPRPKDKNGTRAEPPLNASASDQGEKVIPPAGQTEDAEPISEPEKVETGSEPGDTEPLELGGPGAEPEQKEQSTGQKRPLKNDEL
Assay: DARTS-western analysis in HUVEC lysate
Settings: dose-dependent, read-out: EC50 of resistance to degradation by Pronase
experimental-endpoint: EC50

stdin: I have this compound here, C[C@H]1COC2=C1C(=O)C(=O)c1c2ccc2c1CCCC2(C)C , and I need its recorded EC50.
stdout: ~1000 nM
